Consider the following sequences; for each one, report its total protein half-life in vivo.
assay: total protein half-life in vivo (active degradation + dilution); higher = more stable protein; conditions: E. coli NCM3722 delta-hslV; growth: N-lim chemostat; doubling time 6 h
Kindly answer with a numeric value in h, unit omitted.

// MARIIVVTSGKGGVGKTTSSAAIATGLAQKGKKTVVIDFDIGLRNLDLIMGCERRVVYDFVNVIQGDATLNQALIKDKRTENLYILPASQTRDKDALTREGVAKVLDDLKAMDFEFIVCDSPAGIETGALMALYFADEAIITTNPEVSSVRDSDRILGILASKSRRAENGEEPIKEHLLLTRYNPGRVSRGDMLSMEDVLEILRIKLVGVIPEDQSVLRASNQGEPVILDINADAGKAYADTVERLLGEERPFRFIEEEKKGFLKRLFGG [P0AEZ3] : total protein half-life in vivo value = 5.44

// MTVETQLNPTQPVNQQIYRILRRDIVHCLIAPGTPLSEKEVSVRFNVSRQPVREAFIKLAENGLIQIRPQRGSYVNKISMAQVRNGSFIRQAIECAVARRAASMITESQCYQLEQNLHQQRIAIERKQLDDFFELDDNFHQLLTQIADCQLAWDTIENLKATVDRVRYMSFDHVSPPEMLLRQHLDIFSALQKRDGDAVERAMTQHLQEISESVRQIRQENSDWFSEE [P0ACM2] : total protein half-life in vivo value = 5.98

Every entry's value here was drawn from the supplement of paper PMC11246515.
